# System: MDA-N
# Run description: NCI tumour cell line growth inhibition, 48 h
Active and inactive are the calls of the source. No stated cut-off is given here; in the data, active = GI50 up to about 1.1 µM and inactive = higher.
Quantity measured: GI50

Look over these answered cases.
Compound structure string | Target under test | GI50
O=c1c(C(c2ccccc2)c2c(O)oc3cc(O)ccc3c2=O)c(O)oc2cc(O)ccc12 | MDA-N | > 100 µM (inactive)
Cc1ccccc1NC(=O)Cc1csc(N/N=C2\C(=O)Nc3ccccc32)n1 | MDA-N | 75.2 µM (inactive)
COc1ccc(-c2cc(-c3ccccc3)nc(/N=C\c3ccccc3)n2)c(O)c1 | MDA-N | 5.02 µM (inactive)
Cc1cccc(/C=C2\CCCCCC2=O)c1 | MDA-N | > 100 µM (inactive)

Can you share its GI50? I mean this compound: CC(=O)Oc1ccc2cc(-c3ccc(OC(C)=O)c(OC(C)=O)c3)c(=O)oc2c1
> 100 µM (inactive)
